# System: PPARa:RXRa (NR concentration 270 nM, RXRa partner concentration 90 nM)
# test_description: PBM binding z-score (relative to random genomic background probes); higher = stronger binding; sequences stand for … in GC…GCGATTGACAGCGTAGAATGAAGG
property_label: PBM binding z-score
A bare number is all that is needed in reply.

Enquiry: Fill blank: measured PBM binding z-score of the sequence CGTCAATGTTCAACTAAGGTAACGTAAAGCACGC is ____.
Return: 0.376

Enquiry: Fill blank: measured PBM binding z-score of the sequence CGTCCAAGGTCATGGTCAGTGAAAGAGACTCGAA is ____.
Return: 5.74

Enquiry: Fill blank: measured PBM binding z-score of the sequence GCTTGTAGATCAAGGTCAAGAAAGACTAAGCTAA is ____.
Return: 3.91

Enquiry: Fill blank: measured PBM binding z-score of the sequence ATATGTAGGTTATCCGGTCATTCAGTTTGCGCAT is ____.
Return: 3.71

Enquiry: Fill blank: measured PBM binding z-score of the sequence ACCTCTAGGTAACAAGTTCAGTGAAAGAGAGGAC is ____.
Return: 1.02

Enquiry: Fill blank: measured PBM binding z-score of the sequence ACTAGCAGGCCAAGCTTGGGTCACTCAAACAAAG is ____.
Return: 1.22

Enquiry: Fill blank: measured PBM binding z-score of the sequence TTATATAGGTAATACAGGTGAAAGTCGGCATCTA is ____.
Return: 2.7

Enquiry: Fill blank: measured PBM binding z-score of the sequence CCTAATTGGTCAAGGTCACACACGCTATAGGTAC is ____.
Return: 4.36

Enquiry: Fill blank: measured PBM binding z-score of the sequence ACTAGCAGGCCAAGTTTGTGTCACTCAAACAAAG is ____.
Return: -0.219

Enquiry: Fill blank: measured PBM binding z-score of the sequence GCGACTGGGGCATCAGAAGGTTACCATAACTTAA is ____.
Return: 1.65

Enquiry: Fill blank: measured PBM binding z-score of the sequence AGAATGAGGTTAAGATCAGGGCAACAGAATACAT is ____.
Return: 3.7

Enquiry: Fill blank: measured PBM binding z-score of the sequence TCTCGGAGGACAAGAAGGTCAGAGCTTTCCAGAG is ____.
Return: 1.9

###

# Tested on: RARa:RXR (NR concentration 270 nM, RXRa partner concentration 90 nM)
# test_description: PBM binding z-score (relative to random genomic background probes); higher = stronger binding; sequences stand for … in GC…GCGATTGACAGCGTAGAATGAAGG
The threshold is inclusive: PBM binding z-score of exactly 2 counts as Fulfilled; values below receive Not fulfilled.

Enquiry: Does the reported PBM binding z-score for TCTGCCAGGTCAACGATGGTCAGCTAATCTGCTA fall at or above the 2 mark?
Return: Fulfilled

Enquiry: Does the reported PBM binding z-score for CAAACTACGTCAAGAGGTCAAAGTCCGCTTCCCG fall at or above the 2 mark?
Return: Fulfilled

Enquiry: Does the reported PBM binding z-score for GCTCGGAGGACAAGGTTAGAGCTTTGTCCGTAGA fall at or above the 2 mark?
Return: Not fulfilled

Enquiry: Does the reported PBM binding z-score for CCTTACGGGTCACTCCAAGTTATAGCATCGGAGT fall at or above the 2 mark?
Return: Fulfilled

Enquiry: Does the reported PBM binding z-score for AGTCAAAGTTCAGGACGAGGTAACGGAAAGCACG fall at or above the 2 mark?
Return: Fulfilled

Enquiry: Does the reported PBM binding z-score for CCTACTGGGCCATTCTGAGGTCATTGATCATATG fall at or above the 2 mark?
Return: Fulfilled

Enquiry: Does the reported PBM binding z-score for CCAGACAGGTGCAAGGTAACTCAGTCTGGTACGC fall at or above the 2 mark?
Return: Not fulfilled

Enquiry: Does the reported PBM binding z-score for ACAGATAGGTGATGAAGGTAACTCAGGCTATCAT fall at or above the 2 mark?
Return: Not fulfilled

Enquiry: Does the reported PBM binding z-score for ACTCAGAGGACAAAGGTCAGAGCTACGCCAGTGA fall at or above the 2 mark?
Return: Fulfilled

Enquiry: Does the reported PBM binding z-score for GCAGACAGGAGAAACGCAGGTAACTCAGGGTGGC fall at or above the 2 mark?
Return: Not fulfilled

Enquiry: Does the reported PBM binding z-score for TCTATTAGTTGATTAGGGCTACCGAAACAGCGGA fall at or above the 2 mark?
Return: Not fulfilled

Enquiry: Does the reported PBM binding z-score for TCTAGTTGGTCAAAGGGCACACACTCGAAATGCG fall at or above the 2 mark?
Return: Fulfilled

Enquiry: Does the reported PBM binding z-score for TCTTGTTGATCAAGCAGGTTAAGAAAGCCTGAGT fall at or above the 2 mark?
Return: Not fulfilled

Enquiry: Does the reported PBM binding z-score for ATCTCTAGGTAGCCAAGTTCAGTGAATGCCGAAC fall at or above the 2 mark?
Return: Not fulfilled

Enquiry: Does the reported PBM binding z-score for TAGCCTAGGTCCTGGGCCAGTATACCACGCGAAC fall at or above the 2 mark?
Return: Not fulfilled

Enquiry: Does the reported PBM binding z-score for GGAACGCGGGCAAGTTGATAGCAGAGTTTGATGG fall at or above the 2 mark?
Return: Not fulfilled

Enquiry: Does the reported PBM binding z-score for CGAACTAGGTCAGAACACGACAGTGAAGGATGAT fall at or above the 2 mark?
Return: Not fulfilled

Enquiry: Does the reported PBM binding z-score for CGACCAAGGTCAATGCTAGGTCAGTGAAAGCATT fall at or above the 2 mark?
Return: Fulfilled

Enquiry: Does the reported PBM binding z-score for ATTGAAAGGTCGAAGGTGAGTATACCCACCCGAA fall at or above the 2 mark?
Return: Fulfilled

Enquiry: Does the reported PBM binding z-score for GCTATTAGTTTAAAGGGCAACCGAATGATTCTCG fall at or above the 2 mark?
Return: Not fulfilled

Enquiry: Does the reported PBM binding z-score for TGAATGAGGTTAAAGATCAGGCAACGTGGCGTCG fall at or above the 2 mark?
Return: Fulfilled

Enquiry: Does the reported PBM binding z-score for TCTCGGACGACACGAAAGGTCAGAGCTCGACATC fall at or above the 2 mark?
Return: Fulfilled

Enquiry: Does the reported PBM binding z-score for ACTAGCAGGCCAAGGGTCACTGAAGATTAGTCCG fall at or above the 2 mark?
Return: Fulfilled

Enquiry: Does the reported PBM binding z-score for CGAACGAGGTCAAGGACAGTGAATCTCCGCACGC fall at or above the 2 mark?
Return: Fulfilled

Enquiry: Does the reported PBM binding z-score for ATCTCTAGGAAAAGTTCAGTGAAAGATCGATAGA fall at or above the 2 mark?
Return: Not fulfilled

Enquiry: Does the reported PBM binding z-score for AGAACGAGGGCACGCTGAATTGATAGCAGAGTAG fall at or above the 2 mark?
Return: Not fulfilled

Enquiry: Does the reported PBM binding z-score for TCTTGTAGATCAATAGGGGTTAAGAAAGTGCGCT fall at or above the 2 mark?
Return: Fulfilled

Enquiry: Does the reported PBM binding z-score for ATACCAAGGTGATCGTCAGGTCGTTGATACTAAC fall at or above the 2 mark?
Return: Not fulfilled

Enquiry: Does the reported PBM binding z-score for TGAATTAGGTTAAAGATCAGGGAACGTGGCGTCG fall at or above the 2 mark?
Return: Not fulfilled

Enquiry: Does the reported PBM binding z-score for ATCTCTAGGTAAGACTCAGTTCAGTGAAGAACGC fall at or above the 2 mark?
Return: Not fulfilled

Enquiry: Does the reported PBM binding z-score for CCAACTGGGGCAAAGGTTACCATACTCAGTACGA fall at or above the 2 mark?
Return: Fulfilled

Enquiry: Does the reported PBM binding z-score for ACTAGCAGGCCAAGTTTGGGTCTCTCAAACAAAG fall at or above the 2 mark?
Return: Not fulfilled

Enquiry: Does the reported PBM binding z-score for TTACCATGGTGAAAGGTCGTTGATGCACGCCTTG fall at or above the 2 mark?
Return: Fulfilled

Enquiry: Does the reported PBM binding z-score for ATCTCTAGGTAAAGATAGCTCAGTGAATGCAAAT fall at or above the 2 mark?
Return: Not fulfilled

Enquiry: Does the reported PBM binding z-score for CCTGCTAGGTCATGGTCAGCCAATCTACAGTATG fall at or above the 2 mark?
Return: Fulfilled

Enquiry: Does the reported PBM binding z-score for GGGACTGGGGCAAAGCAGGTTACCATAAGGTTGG fall at or above the 2 mark?
Return: Not fulfilled

Enquiry: Does the reported PBM binding z-score for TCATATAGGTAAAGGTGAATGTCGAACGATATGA fall at or above the 2 mark?
Return: Not fulfilled

Enquiry: Does the reported PBM binding z-score for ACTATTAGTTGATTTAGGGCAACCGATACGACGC fall at or above the 2 mark?
Return: Not fulfilled

Enquiry: Does the reported PBM binding z-score for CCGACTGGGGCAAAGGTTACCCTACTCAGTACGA fall at or above the 2 mark?
Return: Fulfilled

Enquiry: Does the reported PBM binding z-score for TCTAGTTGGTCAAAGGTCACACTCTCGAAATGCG fall at or above the 2 mark?
Return: Fulfilled

Enquiry: Does the reported PBM binding z-score for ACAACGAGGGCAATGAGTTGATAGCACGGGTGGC fall at or above the 2 mark?
Return: Not fulfilled

Enquiry: Does the reported PBM binding z-score for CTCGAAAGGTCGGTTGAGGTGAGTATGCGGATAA fall at or above the 2 mark?
Return: Fulfilled

Enquiry: Does the reported PBM binding z-score for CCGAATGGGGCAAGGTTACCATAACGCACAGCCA fall at or above the 2 mark?
Return: Not fulfilled

Enquiry: Does the reported PBM binding z-score for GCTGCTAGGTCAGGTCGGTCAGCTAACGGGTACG fall at or above the 2 mark?
Return: Not fulfilled

Enquiry: Does the reported PBM binding z-score for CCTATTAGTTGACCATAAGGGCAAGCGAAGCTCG fall at or above the 2 mark?
Return: Not fulfilled

Enquiry: Does the reported PBM binding z-score for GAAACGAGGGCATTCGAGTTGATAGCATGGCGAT fall at or above the 2 mark?
Return: Not fulfilled

Enquiry: Does the reported PBM binding z-score for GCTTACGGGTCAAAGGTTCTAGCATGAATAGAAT fall at or above the 2 mark?
Return: Fulfilled

Enquiry: Does the reported PBM binding z-score for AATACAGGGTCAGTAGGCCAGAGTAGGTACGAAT fall at or above the 2 mark?
Return: Fulfilled

Enquiry: Does the reported PBM binding z-score for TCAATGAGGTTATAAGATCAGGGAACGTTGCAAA fall at or above the 2 mark?
Return: Not fulfilled

Enquiry: Does the reported PBM binding z-score for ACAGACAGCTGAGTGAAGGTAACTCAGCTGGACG fall at or above the 2 mark?
Return: Not fulfilled
